System: Staphylococcus
procedure-details: Antibacterial activity against methicillin-resistant coagulase negative Staphylococcus by agar dilution method
Assay type: functional
readout-kind: MIC (µg/mL)
Write the number in µg/mL without appending the unit.

Guide cases for MIC, answers given:
CCOC(=O)C(Cl)=C1CCN(c2ccc(N3C[C@H](Cn4cc(F)nn4)OC3=O)cc2F)CC1 : 100
N#CC=C1CCN(c2ccc(N3C[C@H](Cn4cc(F)nn4)OC3=O)cc2F)CC1 : 100
N#CC1(O)CCN(c2ccc(N3C[C@H](Cn4cc(F)nn4)OC3=O)cc2F)CC1 : 100

// Input: "CCOC(=O)C(Cl)=C1CCN(c2ccc(N3C[C@H](Cn4ccnn4)OC3=O)cc2F)CC1" . Output its MIC only.
25

// Input: "CC(C#N)=C1CCN(c2ccc(N3C[C@H](Cn4ccnn4)OC3=O)cc2F)CC1" . Output its MIC only.
1.56

// Input: "CC(C#N)=C1CCN(c2ccc(N3C[C@H](Cn4cc(F)nn4)OC3=O)cc2F)CC1" . Output its MIC only.
100

###

Test system: Staphylococcus
procedure-details: Antibacterial activity against methicillin-resistant coagulase negative Staphylococcus by agar dilution method
Format: functional
Reported MIC is given for each of the following compounds.
Write the number in µg/mL without appending the unit.

CCOC(=O)C=C1CCN(c2ccc(N3C[C@H](Cn4ccnn4)OC3=O)cc2F)CC1 : 25
N#CC1(O)CCN(c2ccc(N3C[C@H](Cn4ccnn4)OC3=O)cc2F)CC1 : 3.12

# input for lookup
Provide MIC, recorded with Staphylococcus, of "N#CC=C1CCN(c2ccc(N3C[C@H](Cn4ccnn4)OC3=O)cc2F)CC1"
3.12

// data source = ChEMBL document CHEMBL2321764
